System: HCT cell line
Experiment: Antiproliferative activity against human HCT cells up to 100 uM by Celltiter-Glo assay
Format: functional, cell-based
The source made the active and inactive calls. The calls are words filed in the database; no cut-off is given here.
measured_endpoint: Activity

[[record]]
compound = "CC(C)OC(=O)[C@H](C)NP(=O)(OC[C@@H]1C[C@H]2C[C@@]2(n2ccc(=O)[nH]c2=O)O1)Oc1ccccc1 (some centres undefined)"
measured_endpoint = "Activity"
result = "inactive"

[[record]]
compound = "O=c1ccn([C@@]23C[C@@H]2C[C@@H](CO)O3)c(=O)[nH]1"
measured_endpoint = "Activity"
result = "inactive"

[[record]]
compound = "Nc1ccn([C@@]23C[C@@H]2C[C@@H](CO)O3)c(=O)n1"
measured_endpoint = "Activity"
result = "inactive"

[[record]]
compound = "CC(C)OC(=O)[C@H](C)NP(=O)(OC[C@@H]1C[C@H]2C[C@@]2(n2ccc(N)nc2=O)O1)Oc1ccccc1 (some centres undefined)"
measured_endpoint = "Activity"
result = "inactive"


----------
Test system: A-375
Assay: Antiproliferative activity against human A375 cells up to 100 uM by Celltiter-Glo assay
Assay type: functional, cell-based
Activity calls are given as the source filed them. The rule behind the calls is not given here.
measured_endpoint: Activity

[[record]]
compound = "CC(C)OC(=O)[C@H](C)NP(=O)(OC[C@@H]1C[C@H]2C[C@@]2(n2ccc(=O)[nH]c2=O)O1)Oc1ccccc1 (some centres undefined)"
result = "inactive"

[[record]]
compound = "Nc1ccn([C@@]23C[C@@H]2C[C@@H](CO)O3)c(=O)n1"
result = "inactive"

[[record]]
compound = "O=c1ccn([C@@]23C[C@@H]2C[C@@H](CO)O3)c(=O)[nH]1"
result = "inactive"

[[record]]
compound = "CC(C)OC(=O)[C@H](C)NP(=O)(OC[C@@H]1C[C@H]2C[C@@]2(n2ccc(N)nc2=O)O1)Oc1ccccc1 (some centres undefined)"
result = "inactive"


----------
Test system: Human gammaherpesvirus 4
Test: Antiviral activity against EBV assessed as inhibition of viral replication by cell-based assay
Assay type: functional, organism-based
Active and inactive are the calls of the source. No cut-off for these calls is given here.
measured_endpoint: inhibition

[[record]]
molecule = "CC(C)OC(=O)[C@H](C)NP(=O)(OC[C@@H]1C[C@H]2C[C@@]2(n2ccc(N)nc2=O)O1)Oc1ccccc1 (some centres undefined)"
measured_endpoint = "inhibition"
result = "inactive"

[[record]]
molecule = "O=c1ccn([C@@]23C[C@@H]2C[C@@H](CO)O3)c(=O)[nH]1"
measured_endpoint = "inhibition"
result = "inactive"

[[record]]
molecule = "Nc1ccn([C@@]23C[C@@H]2C[C@@H](CO)O3)c(=O)n1"
measured_endpoint = "inhibition"
result = "inactive"

[[record]]
molecule = "CC(C)OC(=O)[C@H](C)NP(=O)(OC[C@@H]1C[C@H]2C[C@@]2(n2ccc(=O)[nH]c2=O)O1)Oc1ccccc1 (some centres undefined)"
measured_endpoint = "inhibition"
result = "inactive"

